Every entry's value here was drawn from the supplement of paper PMC11061612.

- Test system: KP-4 (Pancreatic Carcinoma)
- EXPERIMENTAL_PROTOCOL: Bliss excess, mean over the matrix (fraction); higher = more synergy
Bliss excess of -0.04 or higher: 1. Under -0.04: 0.

Prompt: Could you please find out whether C=CCn1c(=O)c2cnc(Nc3ccc(N4CCN(C)CC4)cc3)nc2n1-c1cccc(C(C)(C)O)n1 [AZD1775] + O=C(c1cc(Cc2n[nH]c(=O)c3ccccc23)ccc1F)N1CCN(C(=O)C2CC2)CC1 [Olaparib] (first compound max 1 µM, partner max 10 µM) has Bliss excess that meets -0.04 or exceeds it?
Completion: 1

Prompt: Could you please find out whether NC1(C(=O)N[C@@H](CCO)c2ccc(Cl)cc2)CCN(c2ncnc3[nH]ccc23)CC1 [Capivasertib] + Cn1cnc2c(F)c(Nc3ccc(Br)cc3Cl)c(C(=O)NOCCO)cc21 [Selumetinib] (first compound max 10 µM, 7x7, partner max 10 µM) has Bliss excess that meets -0.04 or exceeds it?
Completion: 1

Prompt: Could you please find out whether CC1(C)CCC(CN2CCN(c3ccc(C(=O)NS(=O)(=O)c4ccc(NCC5CCOCC5)c([N+](=O)[O-])c4)c(Oc4cnc5[nH]ccc5c4)c3)CC2)=C(c2ccc(Cl)cc2)C1 [Venetoclax] + CS(=O)(=O)CCNCc1ccc(-c2ccc3ncnc(Nc4ccc(OCc5cccc(F)c5)c(Cl)c4)c3c2)o1 [Lapatinib] (first compound max 1 µM, 7x7, partner max 10 µM) has Bliss excess that meets -0.04 or exceeds it?
Completion: 1

Prompt: Could you please find out whether Cn1cnc2c(F)c(Nc3ccc(Br)cc3Cl)c(C(=O)NOCCO)cc21 [Selumetinib] + CC(C)n1c(=O)n(C)c2cnc3cc(F)c(-c4ccc(OCCCN5CCCCC5)nc4)cc3c21 [AZD1390] (first compound max 10 µM, 7x7, partner max 0.3 µM) has Bliss excess that meets -0.04 or exceeds it?
Completion: 0

Prompt: Could you please find out whether CC(=O)c1c(C)c2cnc(Nc3ccc(N4CCNCC4)cn3)nc2n(C2CCCC2)c1=O [Palbociclib] + CC1(C)CCC(CN2CCN(c3ccc(C(=O)NS(=O)(=O)c4ccc(NCC5CCOCC5)c([N+](=O)[O-])c4)c(Oc4cnc5[nH]ccc5c4)c3)CC2)=C(c2ccc(Cl)cc2)C1 [Venetoclax] (first compound max 10 µM, 7x7, partner max 1 µM) has Bliss excess that meets -0.04 or exceeds it?
Completion: 0

----------
- Test system: NCI-H2373 (Mesothelioma)
- EXPERIMENTAL_PROTOCOL: Bliss excess, mean over the matrix (fraction); higher = more synergy
READOUT_TYPE: Bliss excess
The reply should be a number, written without any unit.

Prompt: Print NCI-H2373 (Mesothelioma) Bliss excess for CCc1c2c(nc3ccc(O)cc13)-c1cc3c(c(=O)n1C2)COC(=O)[C@]3(O)CC [SN-38] + CN(C)CCCOc1ccc(-c2ccc3ncc4c(c3c2)n(C2CCOCC2)c(=O)n4C)cn1 [AZD0156] (first compound max 0.3 µM, 7x7, partner max 1 µM) .
Completion: -0.0037

Prompt: Print NCI-H2373 (Mesothelioma) Bliss excess for Cn1cnc2c(F)c(Nc3ccc(Br)cc3Cl)c(C(=O)NOCCO)cc21 [Selumetinib] + CC(C)n1c(=O)n(C)c2cnc3cc(F)c(-c4ccc(OCCCN5CCCCC5)nc4)cc3c21 [AZD1390] (first compound max 10 µM, 7x7, partner max 0.3 µM) .
Completion: -0.0044

Prompt: Print NCI-H2373 (Mesothelioma) Bliss excess for NC1(C(=O)N[C@@H](CCO)c2ccc(Cl)cc2)CCN(c2ncnc3[nH]ccc23)CC1 [Capivasertib] + Cn1cnc2c(F)c(Nc3ccc(Br)cc3Cl)c(C(=O)NOCCO)cc21 [Selumetinib] (first compound max 10 µM, 7x7, partner max 10 µM) .
Completion: -0.0381

Prompt: Print NCI-H2373 (Mesothelioma) Bliss excess for NC1(C(=O)N[C@@H](CCO)c2ccc(Cl)cc2)CCN(c2ncnc3[nH]ccc23)CC1 [Capivasertib] + COc1nnc2ccc(N3CCC(c4ccc(OCCN5CCN(C)C(=O)[C@H]5C)cc4)CC3)nn12 [AZD5153] (first compound max 10 µM, 7x7, partner max 1 µM) .
Completion: 0.0349

Prompt: Print NCI-H2373 (Mesothelioma) Bliss excess for Cc1cc2ncnn2cc1Nc1ncc2c(n1)n(C1CCOCC1)c(=O)n2C [AZD7648] + O=C(c1cc(Cc2n[nH]c(=O)c3ccccc23)ccc1F)N1CCN(C(=O)C2CC2)CC1 [Olaparib] (first compound max 10 µM, 7x7, partner max 10 µM) .
Completion: 0.0234

----------
- Test system: SNU-C2B (Colorectal Carcinoma)
- EXPERIMENTAL_PROTOCOL: combination Emax (second highest fraction inhibited in the dose matrix, 72 h); higher = more inhibition; extreme values may be limits of the assay
Consider the following compounds; for each one, report its combination Emax.
The reply should be a number, written without any unit.

Prompt: In one line, give reported combination Emax of the entry CCc1c2c(nc3ccc(O)cc13)-c1cc3c(c(=O)n1C2)COC(=O)[C@]3(O)CC [SN-38] + O=C(c1cc(Cc2n[nH]c(=O)c3ccccc23)ccc1F)N1CCN(C(=O)C2CC2)CC1 [Olaparib] (first compound max 0.3 µM, 7x7, partner max 10 µM) .
Completion: 0.478

Prompt: In one line, give reported combination Emax of the entry CC(=O)c1c(C)c2cnc(Nc3ccc(N4CCNCC4)cn3)nc2n(C2CCCC2)c1=O [Palbociclib] + CN(CC[C@H](CSC1=CC=CC=C1)NC2=C(C=C(C=C2)S(=O)(=O)NC(=O)C3=CC=C(C=C3)N4CCC(CC4)[C@H](C5=CC=CC=C5C6=CC=C(C=C6)Cl)O)S(=O)(=O)C(F)(F)F)CCO [AZD4320] (first compound max 10 µM, 7x7, partner max 1 µM) .
Completion: 0.599

Prompt: In one line, give reported combination Emax of the entry Cc1c2c(nn1C)CSCc1cc(n(C)n1)CSc1cc(c3ccccc3c1)OCCCc1c(C(=O)O)n(C)c3c-2c(Cl)ccc13 [AZD5991] + C[C@@H](Nc1cc(F)cc(F)c1)c1cc(C(=O)N(C)C)cc2c(=O)cc(N3CCOCC3)oc12 [AZD8186] (first compound max 1 µM, 7x7, partner max 3 µM) .
Completion: 0.177

----------
- System: BHT-101 (Thyroid Gland Carcinoma)
- EXPERIMENTAL_PROTOCOL: Bliss excess, mean over the matrix (fraction); higher = more synergy
Consider the following molecules; for each one, report its Bliss excess.
The reply should be a number, written without any unit.

Prompt: Print BHT-101 (Thyroid Gland Carcinoma) Bliss excess for C[C@@H](c1ccc2nccn2c1)n1nnc2ncc(-c3cnn(C)c3)nc21 [Savolitinib] + CC1(C)CCC(CN2CCN(c3ccc(C(=O)NS(=O)(=O)c4ccc(NCC5CCOCC5)c([N+](=O)[O-])c4)c(Oc4cnc5[nH]ccc5c4)c3)CC2)=C(c2ccc(Cl)cc2)C1 [Venetoclax] (first compound max 1 µM, 7x7, partner max 1 µM) .
Completion: -0.0341

Prompt: Print BHT-101 (Thyroid Gland Carcinoma) Bliss excess for COc1cccc2c1C(=O)c1c(O)c3c(c(O)c1C2=O)C[C@@](O)(C(=O)CO)C[C@@H]3O[C@H]1C[C@H](N)[C@H](O)[C@H](C)O1 [Doxorubicin] + Cc1cc2ncnn2cc1Nc1ncc2c(n1)n(C1CCOCC1)c(=O)n2C [AZD7648] (first compound max 1 µM, 7x7, partner max 10 µM) .
Completion: 0.0409

Prompt: Print BHT-101 (Thyroid Gland Carcinoma) Bliss excess for Cc1c2c(nn1C)CSCc1cc(n(C)n1)CSc1cc(c3ccccc3c1)OCCCc1c(C(=O)O)n(C)c3c-2c(Cl)ccc13 [AZD5991] + CC1(C)CCC(CN2CCN(c3ccc(C(=O)NS(=O)(=O)c4ccc(NCC5CCOCC5)c([N+](=O)[O-])c4)c(Oc4cnc5[nH]ccc5c4)c3)CC2)=C(c2ccc(Cl)cc2)C1 [Venetoclax] (first compound max 1 µM, 7x7, partner max 1 µM) .
Completion: 0.0146

Prompt: Print BHT-101 (Thyroid Gland Carcinoma) Bliss excess for CCc1c2c(nc3ccc(O)cc13)-c1cc3c(c(=O)n1C2)COC(=O)[C@]3(O)CC [SN-38] + CN(C)CCCOc1ccc(-c2ccc3ncc4c(c3c2)n(C2CCOCC2)c(=O)n4C)cn1 [AZD0156] (first compound max 0.3 µM, 7x7, partner max 1 µM) .
Completion: 0.0664

Prompt: Print BHT-101 (Thyroid Gland Carcinoma) Bliss excess for COc1nnc2ccc(N3CCC(c4ccc(OCCN5CCN(C)C(=O)[C@H]5C)cc4)CC3)nn12 [AZD5153] + CC1(C)CCC(CN2CCN(c3ccc(C(=O)NS(=O)(=O)c4ccc(NCC5CCOCC5)c([N+](=O)[O-])c4)c(Oc4cnc5[nH]ccc5c4)c3)CC2)=C(c2ccc(Cl)cc2)C1 [Venetoclax] (first compound max 1 µM, 7x7, partner max 1 µM) .
Completion: -0.0616

Prompt: Print BHT-101 (Thyroid Gland Carcinoma) Bliss excess for CN(C)CCCOc1ccc(-c2ccc3ncc4c(c3c2)n(C2CCOCC2)c(=O)n4C)cn1 [AZD0156] + C=CCn1c(=O)c2cnc(Nc3ccc(N4CCN(C)CC4)cc3)nc2n1-c1cccc(C(C)(C)O)n1 [AZD1775] (first compound max 1 µM, partner max 1 µM) .
Completion: -0.0209

Prompt: Print BHT-101 (Thyroid Gland Carcinoma) Bliss excess for CN(C)CCCOc1ccc(-c2ccc3ncc4c(c3c2)n(C2CCOCC2)c(=O)n4C)cn1 [AZD0156] + O=C(c1cc(Cc2n[nH]c(=O)c3ccccc23)ccc1F)N1CCN(C(=O)C2CC2)CC1 [Olaparib] (first compound max 3 µM, partner max 3 µM) .
Completion: 0.0766
